# furin cleavage Z-score per entry
target: furin, P09958; assay: furin cleavage Z-score vs untreated control; higher = more cleavage, active = 3.5 or more, inactive = 1 or less, 8 variable residues between constant flanks; settings: 30 min;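 also: purified furin at 1:10 enzyme:substrate in 50 mM HEPES pH 7.5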
Sequence (P09958 whole entry): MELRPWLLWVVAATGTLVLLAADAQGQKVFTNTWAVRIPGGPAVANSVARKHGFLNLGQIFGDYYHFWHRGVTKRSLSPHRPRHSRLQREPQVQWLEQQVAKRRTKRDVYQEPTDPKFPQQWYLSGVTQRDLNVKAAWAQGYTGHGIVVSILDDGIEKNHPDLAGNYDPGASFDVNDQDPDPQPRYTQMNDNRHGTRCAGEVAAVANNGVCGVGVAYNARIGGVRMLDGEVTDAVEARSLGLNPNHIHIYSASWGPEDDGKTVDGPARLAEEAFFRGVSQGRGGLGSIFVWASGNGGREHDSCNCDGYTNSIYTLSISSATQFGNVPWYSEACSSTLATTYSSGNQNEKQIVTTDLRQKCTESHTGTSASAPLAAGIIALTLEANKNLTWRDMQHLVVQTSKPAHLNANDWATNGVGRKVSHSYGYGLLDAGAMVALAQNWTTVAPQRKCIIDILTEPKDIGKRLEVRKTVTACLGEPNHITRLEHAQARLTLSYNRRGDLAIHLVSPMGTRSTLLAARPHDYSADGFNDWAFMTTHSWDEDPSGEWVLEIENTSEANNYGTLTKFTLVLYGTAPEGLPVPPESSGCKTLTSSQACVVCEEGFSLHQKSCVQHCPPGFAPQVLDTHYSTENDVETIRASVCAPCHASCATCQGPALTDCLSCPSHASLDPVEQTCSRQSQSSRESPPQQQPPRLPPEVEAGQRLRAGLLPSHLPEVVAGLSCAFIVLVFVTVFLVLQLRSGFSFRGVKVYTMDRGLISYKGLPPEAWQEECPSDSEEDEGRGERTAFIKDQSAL
This is one part of the list. The true hit rate is not given.

Sequence Entry	furin cleavage Z-score
CALVVLATATAGNASASA [HC832]	0.476 (inactive)
CAEDPCHRPSAGNASASA [HC2331]	0.261 (inactive)
CAWSTVSSEAAGNASASA [HC1363]	0.19 (inactive)
CAVVICESAGAGNASASA [HC1531]	1.4

Data credit: the supplement of paper PMC3545927
